B1: KLHL20 (parent)
chain: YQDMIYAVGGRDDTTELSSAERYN

Variants of: B1
Assay: protein stability index of a GFP-peptide fusion (GPS, HEK-293T) (PSI 1-6); higher = more stable;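 further: lentivirally expressed fusions sorted by FACS into six bins by GFP to DsRed ratio, PSI derived from sequencing read proportions per bin multiplied by bin number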
Settings: c terminus: a fixed tail appended
Record form. Attribute: protein stability index. Fill in for each entry.
Numbers only.

Study these solved cases before continuing.
S18A : 2.03
E21P : 2.55
A7K : 2.12
G10Q : 2.61

Quick batch: protein stability index for everything below.
1. Y1K
2. T14F

1. 4.39
2. 2.18
